Source of measurements: patent US12668599B2

# GI50 per record follows
- Tested on: VCaP cells
- assay details: Cellular growth inhibition assay for VCaP cells (CellTiter-Glo 2.0, 72 hours)
- Format: cell-based, human
- run parameters: 72 hours, CellTiter-Glo 2.0

The cases that follow already have their GI50 on record.
[[record]]
compound = "COc1cc(O[C@H]2C(C)(C)[C@H](NC(=O)c3cnc(N4CCC5(CCC(c6ccc(C7=N[C@@H](Cc8ncco8)c8nnc(C)n8-c8sc(C)c(C)c87)cc6)CC5)C4)nc3)C2(C)C)ccc1C#N"
measurement_label = "GI50"
result = "< 500 nM"

[[record]]
compound = "COc1cc(O[C@H]2CC[C@H](NC(=O)c3ccc(N4CCC5(CCN(c6ccc(C7=NC(Cc8ncco8)c8nnc(C)n8-c8sc(C)c(C)c87)c(C(F)(F)F)c6)CC5)C4)nn3)CC2)ccc1C#N (stereo partly drawn) [Compound I-136]"
measurement_label = "GI50"
result = "> 3000 nM"


Attention now shifts to the item below.
# input Entry COc1cc(O[C@H]2CC[C@H](NC(=O)c3ccc(N4CCC5(CCN(c6ccc(C7=NC(Cc8ncco8)c8nnc(C)n8-c8sc(C)c(C)c87)cc6C(F)(F)F)CC5)C4)nn3)CC2)ccc1C#N (stereo partly drawn) [Compound I-126] : reported GI50 = ?
# output > 3000 nM
